Tested on: Klebsiella pneumoniae
Protocol summary: Minimum inhibitory concentration (lowest peptide concentration) required to prevent visible bacterial growth after 18 hr of incubation at 37 C in Mueller-Hinton broth against Klebsiella pneumoniae 79
Format: functional
Measured metric: MIC

{"columns": ["Substance", "MIC"],
 "data": [
  ["H-GKPRPYSPRPTSHPRPIRV-OH [DROSOCIN]", "64 µM"],
  ["H-GNNRPVYIPQPRPTPHPRL-OH", "> 128 µM"],
  ["H-GKPRPYSPRPSHPRPIRV-OH", "> 128 µM"]
]}

Please turn your attention to the following entry.
Query :: // lookup MIC for H-GKPRPYSPRPASHPRPIRV-OH
Result :: > 128 µM

###

Tested on: Escherichia coli
Protocol summary: Minimum inhibitory concentration (lowest peptide concentration) required to prevent visible bacterial growth after 18 hr of incubation at 37 C in Mueller-Hinton broth against Escherichia coli ATCC 25922
Assay type: functional
Settings: ATCC 25922, 18 h
Field: MIC. Provide a value for each of the substances that follow.
Numbers only, in µM.

{"columns": ["Substance", "MIC / µM"],
 "data": [
  ["H-GKPRPYSPRPTSHPRPIRV-OH [DROSOCIN]", 4],
  ["H-GKPRPYSPRPSHPRPIRV-OH", 64]
]}

Please turn your attention to the following entry.
Query :: // lookup MIC for H-GKPRPYSPRPASHPRPIRV-OH
Result :: 64

###

Test system: Escherichia coli
Protocol summary: Minimum inhibitory concentration (lowest peptide concentration) required to prevent visible bacterial growth after 18 hr of incubation at 37 C in Mueller-Hinton broth against Escherichia coli D21
Type: functional
Field: MIC. Provide a value for each of the substances that follow.

{"columns": ["Substance", "Assay system", "MIC"],
 "data": [
  ["H-GKPRPYSPRPASHPRPIRV-OH", "Escherichia coli", "> 128 µM"],
  ["H-GKPRPYSPRPSHPRPIRV-OH", "Escherichia coli", "> 64 µM"]
]}

Lab note: each substance below needs its MIC filled in.
1. H-GNNRPVYIPQPRPTPHPRL-OH
2. H-GKPRPYSPRPTSHPRPIRV-OH [DROSOCIN]

Result ::
1: > 64 µM; 2: > 128 µM

###

System: Escherichia coli
Protocol summary: Minimum inhibitory concentration (lowest peptide concentration) required to prevent visible bacterial growth after 18 hr of incubation at 37 C in Mueller-Hinton broth against Escherichia coli ML-35
Type: functional
Measured metric: MIC (µM)
Answers are plain numbers, in µM.

Some entries whose results are on file:
{"columns": ["Substance", "Assay system", "Measured"],
 "data": [
  ["H-GKPRPYSPRPSHPRPIRV-OH", "Escherichia coli", 32],
  ["H-GKPRPYSPRPTSHPRPIRV-OH [DROSOCIN]", "Escherichia coli", 2]
]}

Please turn your attention to the following entry.
Query :: What MIC appears in the records for this substance with Escherichia coli? H-GKPRPYSPRPASHPRPIRV-OH
Result :: 16

###

Test system: Acinetobacter baumannii
Protocol summary: Minimum inhibitory concentration (lowest peptide concentration) required to prevent visible bacterial growth after 18 hr of incubation at 37 C in Mueller-Hinton broth against Acinetobacter baumannii 118A
Type: functional
Measured metric: MIC

Some entries whose results are on file:
{"columns": ["Substance", "MIC"],
 "data": [
  ["H-GKPRPYSPRPSHPRPIRV-OH", "> 64 µM"],
  ["H-GKPRPYSPRPTSHPRPIRV-OH [DROSOCIN]", "> 128 µM"],
  ["H-GNNRPVYIPQPRPTPHPRL-OH", "> 128 µM"]
]}

Please turn your attention to the following entry.
Query :: // lookup MIC for H-GKPRPYSPRPASHPRPIRV-OH
Result :: > 128 µM
